Source: patent US10919885B2

- assay target: UniProt:O00767
- Sequence (O00767 whole entry): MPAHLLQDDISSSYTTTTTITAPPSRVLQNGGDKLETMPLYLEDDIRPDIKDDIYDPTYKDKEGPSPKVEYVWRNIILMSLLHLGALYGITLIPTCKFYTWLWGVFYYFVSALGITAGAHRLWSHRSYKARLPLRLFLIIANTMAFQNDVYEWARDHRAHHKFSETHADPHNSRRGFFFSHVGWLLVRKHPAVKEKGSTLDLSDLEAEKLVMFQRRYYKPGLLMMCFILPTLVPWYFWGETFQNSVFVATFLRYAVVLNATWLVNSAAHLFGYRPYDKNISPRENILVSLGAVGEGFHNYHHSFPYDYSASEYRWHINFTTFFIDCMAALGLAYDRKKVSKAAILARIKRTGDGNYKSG
- assay name: Yeast growth assay, strain expressing human SCD1 as the sole desaturase (reduced growth as surrogate for SCD inhibition)
- condition summary: yeast with OLE1 deleted expressing human SCD1 from a plasmid; growth read as OD600 after 40 h at 30° C.; top drug concentration 33.3 μM
Please provide measured IC50 for the entries that follow.

Query :: # lookup: IC50 of O=C(Nc1cnn(Cc2cnccc2C(F)(F)F)c1)c1cc(N2CCCCC2)on1 [Compound 182]
Result :: > 45 µM

Query :: Item under review: CSCCC(c1ccccc1)n1cc(NC(=O)c2cc(-c3ccccc3)on2)cn1 (stereo not drawn) [Compound 70] . Reported IC50?
Result :: > 45 µM

Query :: For the compound shown here, CNC(=O)c1ccccc1-c1cc(C(=O)N2CCC(c3ccccc3)CC2)no1 [Compound 301] , give the reported IC50.
Result :: > 45 µM

Query :: Name the recorded IC50 for N#Cc1ccc(-c2cc(C(=O)Nc3cnn(Cc4ccccc4)c3)no2)cc1 [Compound 128] .
Result :: 0.98 µM

Query :: Data request, read-out IC50, for CC(C)(C)OC(=O)N1CCN(c2cc(C(=O)Nc3cnn(Cc4ccccc4)c3)no2)CC1 [Compound 185]
Result :: 0.012 µM

Query :: Endpoint output: IC50 of O=C(Nc1cnn(Cc2ccccc2)n1)c1cc(-c2ccccc2)on1 [Compound 52] . Value?
Result :: > 45 µM

Query :: So what's the measured IC50 for this one? CC(C)(C)OC(=O)N1CC2(C1)CN(C(=O)c1cc(-c3ccccc3)on1)C2 [Compound 344]
Result :: > 45 µM

Query :: Sample O=C(Nc1cnn(Cc2ccccc2)c1)c1cc(Cl)on1 [Compound 180] — what was its IC50?
Result :: > 45 µM

Query :: Param item = NC(=O)c1cc(C(=O)Nc2cnn(Cc3ccccc3)c2)no1 [Compound 48] ; retrieve measured IC50.
Result :: > 45 µM

----------
- assay target: human SCD5 (Homo sapiens (Human), UniProt Q86SK9)
- Sequence (Q86SK9 whole entry): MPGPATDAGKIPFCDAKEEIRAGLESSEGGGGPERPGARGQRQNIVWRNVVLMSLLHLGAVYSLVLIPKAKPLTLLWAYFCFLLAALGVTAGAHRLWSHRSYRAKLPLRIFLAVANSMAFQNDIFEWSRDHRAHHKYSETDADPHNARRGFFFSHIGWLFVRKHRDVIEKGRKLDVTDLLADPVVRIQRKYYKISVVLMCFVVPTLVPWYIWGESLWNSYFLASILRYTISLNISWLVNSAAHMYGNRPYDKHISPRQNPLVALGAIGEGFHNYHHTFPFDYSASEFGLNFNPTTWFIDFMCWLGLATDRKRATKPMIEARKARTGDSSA
- assay name: Yeast growth assay, strain expressing human SCD5 as the sole desaturase (reduced growth as surrogate for SCD inhibition)
- condition summary: yeast with OLE1 deleted expressing human SCD5 from a plasmid; growth read as OD600 after 40 h at 30° C.; top drug concentration 33.3 μM
assay metric: IC50

Query :: Request the reported IC50 associated with O=C(c1cc(-c2ccccc2)on1)N1CC(c2ccccc2)C1 [Compound 212]
Result :: 1.62 µM

Query :: Would you kindly share the measured IC50 for N#Cc1ccccc1-c1cc(C(=O)Nc2cnn(Cc3cccc(F)c3)c2)no1 [Compound 103] ?
Result :: > 45 µM

Query :: Look up IC50: COc1ccc(-c2cc(C(=O)N3CCCC3c3ccc(OC)cc3)no2)cc1 (stereo not drawn) [Compound 376]
Result :: > 45 µM

Query :: Quick check: IC50 of COc1ccc(-c2cc(C(=O)N3CC(c4ccccc4)C3)no2)nc1 [Compound 242] ?
Result :: 0.305 µM

Query :: Recorded IC50 for O=C(c1cc(-c2ccco2)on1)N(Cc1ccc(Cl)cc1)c1cnn(Cc2ccc(Cl)cc2)c1 [Compound 32] , please?
Result :: > 45 µM

Query :: If you can, please state the reported IC50 value of O=C(c1cc(-c2ccccc2)on1)N1CC(Oc2ccccc2)C1 [Compound 213] .
Result :: > 45 µM

Query :: Recorded IC50 of O=C(c1cc(-c2ccccc2)on1)N1CC2(CC(c3ccccc3)C2)C1 [Compound 227] , please.
Result :: 8.87 µM

Query :: Request the reported IC50 associated with O=C(c1cc(-c2ccccc2)on1)N1CC2(CNC2)C1 [Compound 345]
Result :: > 45 µM

Query :: Returns the measured IC50 for the input molecule. Input: O=C(c1cc(-c2ccco2)on1)N1CC(Oc2ccccc2)C1 [Compound 206]
Result :: 1.4 µM

Query :: So what's the measured IC50 for this one? O=C(c1cc(-c2ccncn2)on1)N1CC(Cc2ccccc2)C1 [Compound 258]
Result :: 1 µM

Query :: // lookup IC50 for CS(=O)(=O)CCC(c1ccccc1)n1cc(NC(=O)c2cc(-c3ccccc3)on2)cn1 (stereo not drawn) [Compound 75]
Result :: > 45 µM

Query :: What value of measured IC50 is listed for O=C(c1cnn(Cc2ccncc2)c1)c1cc(-c2ccccc2)on1 [Compound 138] ?
Result :: > 45 µM

Query :: Which measured IC50 value corresponds to CC(C)(C)OC(=O)N1CC2(C1)CN(C(=O)c1cc(-c3ccccc3)on1)C2 [Compound 344] ?
Result :: > 45 µM

Query :: So what does the record say about IC50 for O=C(c1cc(-c2ccc3c(c2)OCO3)on1)N1CCCC1c1ccccc1F (stereo not drawn) [Compound 366] ?
Result :: > 45 µM

Query :: Record request: IC50 value, item COc1ccc(C2CCCN2C(=O)c2cc(-c3ccc(C(F)(F)F)cc3)on2)cc1 (stereo not drawn) [Compound 381]
Result :: > 45 µM

Query :: Which value of IC50 has been reported for O=C(Nc1cnn(CCCC(F)(F)F)c1)c1cc(-c2ccco2)on1 [Compound 34] in the records?
Result :: 6.42 µM

Query :: IC50 for O=C(Nc1cnn(CC2CCOC2)c1)c1cc(-c2ccccc2)on1 (stereo not drawn) [Compound 50] ?
Result :: > 45 µM

Query :: Could you share which IC50 value was measured for N#Cc1ccc2c(C(=O)N3CCC[C@H]3c3ccccc3)noc2c1 [Compound 456] ?
Result :: > 45 µM
